# target of assay: T1, Human PD-1-His protein (ACROBiosystems, # PD1-H5221) (human, UniProt Q15116 25-167)
# T1 construct: Bought reagent, coated on the ELISA plate; also called human PD-1 protein; human PD-1 antigen; not shown: His tag
# T1 sequence (Q15116 25-167 limits assumed): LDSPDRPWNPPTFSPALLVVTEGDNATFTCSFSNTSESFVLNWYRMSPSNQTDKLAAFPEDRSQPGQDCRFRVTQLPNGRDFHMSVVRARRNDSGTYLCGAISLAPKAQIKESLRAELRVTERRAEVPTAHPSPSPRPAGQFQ
# method: ELISA, plate-coated human PD-1-His
readout: pEC50
In simple prose, pEC50 is minus the logarithm base ten of a concentration in moles per litre.

Req: Please give the documented pEC50 of PR000679 (antibody, human IgG4 S228P, kappa, V domains shown, Fully human recombinant H2L2 antibody, human IgG4, kappa light chain; also called 4004_6C11C6) VH: QVQLVQSGTEVKKPGSSVKVSCKASGGTFSSYAISWVRQAPGQGLEWMGGIIPIFDTVSSAQKFQGRVTITADKSTSTAYMELFSLRSEDTAVYYCARSPPYSSNWYQYFQHWGQGTLVTVSS VL: DIQMTQSPSTLSASVGDRVTITCRASQTISIWLAWYQQKPGKAPKLLIYKASSLESGVPSRFSGSGSGTEFTLTISSLQPDDFATYYCQQFNSYWTFGQGTKVEIKR
Resp: 9.99

Further cases:
Req: Please give the documented pEC50 of PR002479 (antibody, human IgG1, V domains shown, Heavy-chain-only antibody (HCAb), human IgG1 Fc; two heavy chains, no light chain; also called R4004P551D6) VH: EVQLVETGGGLIQPGGSLRLSCAASGFNVSSHYMSWVRQAPGKGLEWVSIIHSGGSTYYADSVKGRFTISRDNSKNRLYLQMNSLRAEDTAVYYCARATAVAEENGYNYPFNYWGQGTLVTVSS
Resp: 9.82

Req: Please give the documented pEC50 of PR000674 (antibody, human IgG4 S228P, kappa, V domains shown, Fully human recombinant H2L2 antibody, human IgG4, kappa light chain; also called 4004_12H9C1) VH: QVQLVESGGGVVQPGKSLRLSCTVSGLTFSDNGMHWVRQAPGRGLEWMSVIWYDGSKKYYADSVKGRFTISRDNSKNTLYLQMNNMRVEDTAVYYCATNSDYWGQGTLVTVSS VL: EIVLTQSPATLSLSPGERATLSCRASQSVSSYLAWYQQKPGQAPRLLIYDTSKRATGIPARFSGSGSGTDFTLTISSLEPEDFAVYYCQQHNNWIFTFGPGTKVDIKR
Resp: 10.13

Req: Please give the documented pEC50 of PR002476 (antibody, human IgG1, V domains shown, Heavy-chain-only antibody (HCAb), human IgG1 Fc; two heavy chains, no light chain; also called R4004P547H11) VH: EVQLVETGGGLIQPGGSLRLSCAASGFNVSSHYMSWVRQAPGKGLEWVSIIHSGGSTYYADSVKGRFTISRDNSKNRLYLQMNSLRAEDTAVYYCARATAVAEKNGYNYPFNYWGQGTLVTVSS
Resp: 9.77
